Test system: MN-60 (B-Lymphoblastic Leukemia)
run_description: Bliss excess, mean over the matrix (fraction); higher = more synergy;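 note: after 72 h of two-drug dosing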
The following molecules are listed with their measured Bliss excess values.
property: Bliss excess

| molecule | reported_value |
| --- | --- |
| CC1(C)CCC(CN2CCN(c3ccc(C(=O)NS(=O)(=O)c4ccc(NCC5CCOCC5)c([N+](=O)[O-])c4)c(Oc4cnc5[nH]ccc5c4)c3)CC2)=C(c2ccc(Cl)cc2)C1 [Venetoclax] + COc1cc(Nc2ncc3c(n2)-c2ccc(Cl)cc2C(c2c(F)cccc2OC)=NC3)ccc1C(=O)O [Alisertib] (first compound max 1 µM, 7x7, partner max 10 µM) | 0.0368 |
| COc1cc2c(cc1OCCCCCOc1cc3c(cc1OC)C(=O)N1C=C(C)C[C@H]1C=N3)N=C[C@@H]1CC(C)=CN1C2=O [SG3199] + O=C(c1cc(Cc2n[nH]c(=O)c3ccccc23)ccc1F)N1CCN(C(=O)C2CC2)CC1 [Olaparib] (first compound max 0.001 µM, 7x7, partner max 10 µM) | -0.027 |
| C[C@@H](Nc1cc(F)cc(F)c1)c1cc(C(=O)N(C)C)cc2c(=O)cc(N3CCOCC3)oc12 [AZD8186] + CC(=O)c1c(C)c2cnc(Nc3ccc(N4CCNCC4)cn3)nc2n(C2CCCC2)c1=O [Palbociclib] (first compound max 10 µM, 7x7, partner max 10 µM) | -0.0082 |
| Cc1c2c(nn1C)CSCc1cc(n(C)n1)CSc1cc(c3ccccc3c1)OCCCc1c(C(=O)O)n(C)c3c-2c(Cl)ccc13 [AZD5991] + Cc1cc2ncnn2cc1Nc1ncc2c(n1)n(C1CCOCC1)c(=O)n2C [AZD7648] (first compound max 1 µM, 7x7, partner max 10 µM) | 0.0011 |
| N#Cc1cnc(Nc2cc(NC[C@H]3CNCCO3)c(C(F)(F)F)cn2)cn1 [SRA737] + CCc1c2c(nc3ccc(O)cc13)-c1cc3c(c(=O)n1C2)COC(=O)[C@]3(O)CC [SN-38] (first compound max 10 µM, 7x7, partner max 0.3 µM) | -0.0495 |
| CC1(C)CCC(CN2CCN(c3ccc(C(=O)NS(=O)(=O)c4ccc(NCC5CCOCC5)c([N+](=O)[O-])c4)c(Oc4cnc5[nH]ccc5c4)c3)CC2)=C(c2ccc(Cl)cc2)C1 [Venetoclax] + CS(=O)(=O)CCNCc1ccc(-c2ccc3ncnc(Nc4ccc(OCc5cccc(F)c5)c(Cl)c4)c3c2)o1 [Lapatinib] (first compound max 1 µM, 7x7, partner max 10 µM) | -0.0502 |
| C[C@@H](c1ccc2nccn2c1)n1nnc2ncc(-c3cnn(C)c3)nc21 [Savolitinib] + CC1(C)CCC(CN2CCN(c3ccc(C(=O)NS(=O)(=O)c4ccc(NCC5CCOCC5)c([N+](=O)[O-])c4)c(Oc4cnc5[nH]ccc5c4)c3)CC2)=C(c2ccc(Cl)cc2)C1 [Venetoclax] (first compound max 1 µM, 7x7, partner max 1 µM) | -0.0341 |
| CC1(C)CCC(CN2CCN(c3ccc(C(=O)NS(=O)(=O)c4ccc(NCC5CCOCC5)c([N+](=O)[O-])c4)c(Oc4cnc5[nH]ccc5c4)c3)CC2)=C(c2ccc(Cl)cc2)C1 [Venetoclax] + C[C@@H]1COCCN1C2=NC(=NC(=C2)C3(CC3)[S@](=N)(=O)C)C4=C5C=CNC5=NC=C4 [AZD6738] (first compound max 1 µM, 7x7, partner max 10 µM) | 0.0434 |
| COc1nnc2ccc(N3CCC(c4ccc(OCCN5CCN(C)C(=O)[C@H]5C)cc4)CC3)nn12 [AZD5153] + Cc1c2c(nn1C)CSCc1cc(n(C)n1)CSc1cc(c3ccccc3c1)OCCCc1c(C(=O)O)n(C)c3c-2c(Cl)ccc13 [AZD5991] (first compound max 1 µM, 7x7, partner max 1 µM) | -0.0765 |
| CN(C)CCCOc1ccc(-c2ccc3ncc4c(c3c2)n(C2CCOCC2)c(=O)n4C)cn1 [AZD0156] + C[C@@H]1COCCN1C2=NC(=NC(=C2)C3(CC3)[S@](=N)(=O)C)C4=C5C=CNC5=NC=C4 [AZD6738] (first compound max 1 µM, 7x7, partner max 10 µM) | -0.0041 |
| C=CCn1c(=O)c2cnc(Nc3ccc(N4CCN(C)CC4)cc3)nc2n1-c1cccc(C(C)(C)O)n1 [AZD1775] + Nc1ccn([C@@H]2O[C@H](CO)[C@@H](O)C2(F)F)c(=O)n1 [Gemcitabine] (first compound max 1 µM, partner max 0.3 µM) | -0.0157 |
| NC1(C(=O)N[C@@H](CCO)c2ccc(Cl)cc2)CCN(c2ncnc3[nH]ccc23)CC1 [Capivasertib] + Cn1cnc2c(F)c(Nc3ccc(Br)cc3Cl)c(C(=O)NOCCO)cc21 [Selumetinib] (first compound max 10 µM, 7x7, partner max 10 µM) | -0.0652 |
| C[C@@H]1COCCN1c1cc(C2([S@](C)(=N)=O)CC2)nc(-c2ccnc3[nH]ccc23)n1 [AZD6738] + C1CC(C1)(C(=O)[O-])C(=O)[O-].N.N.[Pt+2] [Carboplatin] (first compound max 10 µM, 7x7, partner max 10 µM) | -0.119 |

###

Tested on: NCI-H520 (Squamous Cell Lung Carcinoma)
run_description: Bliss excess, mean over the matrix (fraction); higher = more synergy
Let's look at some compounds and their measured Bliss excess.
property: Bliss excess

| compound | reported_value |
| --- | --- |
| CC1(C)CCC(CN2CCN(c3ccc(C(=O)NS(=O)(=O)c4ccc(NCC5CCOCC5)c([N+](=O)[O-])c4)c(Oc4cnc5[nH]ccc5c4)c3)CC2)=C(c2ccc(Cl)cc2)C1 [Venetoclax] + COc1cc(Nc2ncc3c(n2)-c2ccc(Cl)cc2C(c2c(F)cccc2OC)=NC3)ccc1C(=O)O [Alisertib] (first compound max 1 µM, 7x7, partner max 10 µM) | -0.0425 |
| O=C(c1cc(Cc2n[nH]c(=O)c3ccccc23)ccc1F)N1CCN(C(=O)C2CC2)CC1 [Olaparib] + Cc1c2c(nn1C)CSCc1cc(n(C)n1)CSc1cc(c3ccccc3c1)OCCCc1c(C(=O)O)n(C)c3c-2c(Cl)ccc13 [AZD5991] (first compound max 10 µM, 7x7, partner max 1 µM) | -0.0289 |
| NC1(C(=O)N[C@@H](CCO)c2ccc(Cl)cc2)CCN(c2ncnc3[nH]ccc23)CC1 [Capivasertib] + CCN(CCO)CCCOc1ccc2c(Nc3cc(CC(=O)Nc4cccc(F)c4)[nH]n3)ncnc2c1 [AZD2811] (first compound max 10 µM, 7x7, partner max 1 µM) | -0.004 |

###

Tested on: KMS-12-BM (Plasma Cell Myeloma)
run_description: Bliss excess, mean over the matrix (fraction); higher = more synergy
Overview of reported Bliss excess across a group of compounds:

| compound | Bliss excess |
| --- | --- |
| Cc1c2c(nn1C)CSCc1cc(n(C)n1)CSc1cc(c3ccccc3c1)OCCCc1c(C(=O)O)n(C)c3c-2c(Cl)ccc13 [AZD5991] + C1CN(CCC1(C(=O)N[C@@H](CCO)C2=CC=C(C=C2)Cl)N)C3=NC=NC4=C3C=CN4 [Capivasertib] (first compound max 1 µM, 7x7, partner max 3 µM) | 0.0127 |
| Cc1c2c(nn1C)CSCc1cc(n(C)n1)CSc1cc(c3ccccc3c1)OCCCc1c(C(=O)O)n(C)c3c-2c(Cl)ccc13 [AZD5991] + CC1(C)CCC(CN2CCN(c3ccc(C(=O)NS(=O)(=O)c4ccc(NCC5CCOCC5)c([N+](=O)[O-])c4)c(Oc4cnc5[nH]ccc5c4)c3)CC2)=C(c2ccc(Cl)cc2)C1 [Venetoclax] (first compound max 1 µM, 7x7, partner max 1 µM) | 0.0301 |
| Cn1cnc2c(F)c(Nc3ccc(Br)cc3Cl)c(C(=O)NOCCO)cc21 [Selumetinib] + CCN(CCO)CCCOc1ccc2c(Nc3cc(CC(=O)Nc4cccc(F)c4)[nH]n3)ncnc2c1 [AZD2811] (first compound max 10 µM, 7x7, partner max 1 µM) | 0.0832 |
| CN(CCO)CC[C@H](CSc1ccccc1)Nc1ccc(S(=O)(=O)NC(=O)c2ccc(N3CCC([C@@H](O)c4ccccc4-c4ccc(Cl)cc4)CC3)cc2)cc1S(=O)(=O)C(F)(F)F [AZD4320] + C[C@@H](Nc1cc(F)cc(F)c1)c1cc(C(=O)N(C)C)cc2c(=O)cc(N3CCOCC3)oc12 [AZD8186] (first compound max 1 µM, 7x7, partner max 3 µM) | 0.0652 |
| COc1cccc(OCCCN)c1-c1cc(Nc2cnc(C#N)cn2)n[nH]1 [Prexasertib] + CCc1c2c(nc3ccc(O)cc13)-c1cc3c(c(=O)n1C2)COC(=O)[C@]3(O)CC [SN-38] (first compound max 1 µM, 7x7, partner max 0.3 µM) | 0.0381 |
| CCN(CCO)CCCOc1ccc2c(Nc3cc(CC(=O)Nc4cccc(F)c4)[nH]n3)ncnc2c1 [AZD2811] + C[C@@H]1COCCN1C2=NC(=NC(=C2)C3(CC3)[S@](=N)(=O)C)C4=C5C=CNC5=NC=C4 [AZD6738] (first compound max 1 µM, 7x7, partner max 10 µM) | 0.0141 |
| CN(CCO)CC[C@H](CSc1ccccc1)Nc1ccc(S(=O)(=O)NC(=O)c2ccc(N3CCC([C@@H](O)c4ccccc4-c4ccc(Cl)cc4)CC3)cc2)cc1S(=O)(=O)C(F)(F)F [AZD4320] + Cn1cnc2c(F)c(Nc3ccc(Br)cc3Cl)c(C(=O)NOCCO)cc21 [Selumetinib] (first compound max 1 µM, 7x7, partner max 3 µM) | -0.024 |
